Experiment: Canine pharmacokinetics, compounds dosed individually
Assay type: in vivo, canines (beagles)
Conditions: beagle, dog, plasma, oral 2 or 4 mg/kg, read-out: Canine t1/2 (converted)
// assign T if half-life falls strictly below 10 days, else F (ties count as F)

[
  {
    "Smiles string": "NS(=O)(=O)c1ccc(-n2nc(C(F)(F)F)cc2-c2ccc(F)cc2)cc1",
    "Group": "F"
  },
  {
    "Smiles string": "NS(=O)(=O)c1ccc(-n2nc(C(F)(F)F)cc2-c2ccc(Cl)cc2Cl)cc1",
    "Group": "F"
  },
  {
    "Smiles string": "NS(=O)(=O)c1ccc(-n2nc(C(F)(F)F)cc2-c2ccc(Cl)c(Cl)c2)cc1",
    "Group": "F"
  },
  {
    "Smiles string": "Cc1cc(-c2cc(C(F)(F)F)nn2-c2ccc(S(N)(=O)=O)cc2)ccc1Cl",
    "Group": "T"
  },
  {
    "Smiles string": "COc1cc(-c2cc(C(F)(F)F)nn2-c2ccc(S(N)(=O)=O)cc2)ccc1Br",
    "Group": "T"
  },
  {
    "Smiles string": "NS(=O)(=O)c1ccc(-n2nc(C(F)(F)F)cc2-c2ccc(F)c(F)c2)cc1",
    "Group": "F"
  }
]

Origin of measurements: patent US20050131028A1
